This collection of values is drawn from ChEMBL document CHEMBL1150422.

- Organism: Bos taurus
- experimental-details: Inhibition of calf brain tubulin polymerization at 20 uM after 20 mins
The following compounds are shown together with reported inhibition values.
property-name: inhibition (%)

1) COc1cc(C(OC(C)=O)c2ccc3c(ccn3C)c2)cc(OC)c1OC (stereo not given) = 41
2) CN/N=C(/c1cc(OC)c(OC)c(OC)c1)c1ccc2c(ccn2C)c1 = 20
3) CCn1ccc2cc(/C(=N\OC(C)=O)c3cc(OC)c(OC)c(OC)c3)ccc21 = 26
4) CCn1ccc2cc(C(OC(C)=O)c3cc(OC)c(OC)c(OC)c3)ccc21 (stereo not given) = 0
5) COc1cc(/C(=N/OC(C)=O)c2ccc3c(ccn3C)c2)cc(OC)c1OC = 38

====

- Species on record: Bos taurus
- experimental-details: Inhibition of calf brain tubulin polymerization at 30 uM after 20 mins
property-name: inhibition

1) COc1cc(/C(=N/N)c2ccc3c(ccn3C)c2)cc(OC)c1OC = 35%
2) COc1cc(/C(=N/NC(C)=O)c2ccc3c(ccn3C)c2)cc(OC)c1OC = 14%
3) COc1cc(/C(=N/O)c2ccc3c(ccn3C)c2)cc(OC)c1OC = 82%
4) CCn1ccc2cc(/C(=N\N)c3cc(OC)c(OC)c(OC)c3)ccc21 = 7%

====

The following compounds are shown together with reported IC50 values.
- Tested on: A549
- experimental-details: Cytotoxicity against human A549 cells after 72 hrs by XTT method
- Type: functional, cell-based
- condition-context: A549, 72 h
property-name: IC50

1) CCn1ccc2cc(C(OC(C)=O)c3cc(OC)c(OC)c(OC)c3)ccc21 (stereo not given) = > 10 µM
2) COc1cc(/C(=N/OC(=O)OC(C)(C)C)c2ccc3c(ccn3C)c2)cc(OC)c1OC = > 10 µM
3) CCn1ccc2cc(/C(=N/OC(C)=O)c3cc(OC)c(OC)c(OC)c3)ccc21 = > 10 µM
4) CCn1ccc2cc(/C(=N\OC(C)=O)c3cc(OC)c(OC)c(OC)c3)ccc21 = > 10 µM
5) COc1ccc(C(=O)c2cc(OC)c(OC)c(OC)c2)cc1O = 0.3 µM

====

- Test system: A549
- experimental-details: Cytotoxicity against human A549 cells after 72 hrs by XTT method
- Type: functional, cell-based
- condition-context: A549, 72 h
pIC50: −log10 of the molar value.
property-name: pIC50

1. COc1cc(C(OC(C)=O)c2ccc3c(ccn3C)c2)cc(OC)c1OC (stereo unspecified) = < 5.00
2. CN/N=C(/c1cc(OC)c(OC)c(OC)c1)c1ccc2c(ccn2C)c1 = < 6.00
3. COc1cc(C(O)c2ccc3c(ccn3C)c2)cc(OC)c1OC (stereo unspecified) = < 5.00
4. COc1cc(/C(=N\OC(=O)OC(C)(C)C)c2ccc3c(ccn3C)c2)cc(OC)c1OC = < 6.00
5. COc1cc(C(=O)c2ccc3c(ccn3C)c2)cc(OC)c1OC = 6.92
6. CCn1ccc2cc(C(O)c3cc(OC)c(OC)c(OC)c3)ccc21 (stereo unspecified) = < 5.00

====

- Test system: A549
- experimental-details: Cytotoxicity against human A549 cells after 72 hrs by XTT method
- Type: functional, cell-based
- condition-context: A549, 72 h
pIC50: −log10 of the molar value.
The following compounds are shown together with reported pIC50 values.
property-name: pIC50

1. CCn1ccc2cc(/C(=N\O)c3cc(OC)c(OC)c(OC)c3)ccc21 = < 5.00
2. CCn1ccc2cc(/C(=N\N)c3cc(OC)c(OC)c(OC)c3)ccc21 = < 5.00
3. CCn1ccc2cc(C(=O)c3cc(OC)c(OC)c(OC)c3)ccc21 = 6.85
4. COc1cc(/C(=N/NC(C)=O)c2ccc3c(ccn3C)c2)cc(OC)c1OC = < 5.00
5. COc1cc(/C(=N/O)c2ccc3c(ccn3C)c2)cc(OC)c1OC = < 5.00
